Just for reference, patent US20210388087A1 is where these values come from.

Target: T1, human CD137-Fc (human, biotin-labeled)
T1 construct: if 90 already holds the Fc, drop the second piece; also called biotin-labeled human CD137 fused to human IgG1 Fc fragment; biotin-human CD137-Fc; not shown: human IgG1 Fc fragment
Assay: bead ELISA on biotin-human CD137-Fc with 62.5 pmol free CD3e peptide as competitor
Measure name: ELISA signal
Numbers only.

-- ask Could you tell me which ELISA signal is on file for DXDU01_3#051 (antibody, V domains shown, Human IgG1; light chain GLS3000 (kappa); also called dBBDu127) VH: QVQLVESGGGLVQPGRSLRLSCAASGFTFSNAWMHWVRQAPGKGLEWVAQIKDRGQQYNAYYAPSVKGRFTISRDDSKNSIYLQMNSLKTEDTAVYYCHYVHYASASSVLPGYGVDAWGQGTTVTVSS VL: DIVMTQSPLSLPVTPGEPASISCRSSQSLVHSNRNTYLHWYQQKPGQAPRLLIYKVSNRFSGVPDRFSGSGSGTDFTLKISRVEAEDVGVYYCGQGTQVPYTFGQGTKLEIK ?
-- reply 10800
